Values were extracted from patent US6441169B1.

# Tested on: Venturia inaegualis
# Measurement Notes: B-3 Residual-protective action against Venturia inaegualis on apples
# Type: in vivo
# Experimental Context: apple cuttings; spray 0.02% a.i.; infected 24 hours later; evaluation 12 days after infection
# Procedure: Residual-protective Action Against Venturia inaegualis on Apples Apple cuttings with fresh shoots 10 to 20 cm long are sprayed to drip point with a spray mixture (0.02% a.i.) prepared from a wettable powder formulation of the test compound. The plants are infected 24 hours later with a conidia suspension of the fungus. The plants are then incubated for 5 days at 90 to 100% relative humidity and stood in a greenhouse for a further 10 days at 20 to 24° C. […]
Measured Property: activity against Venturia inaegualis (fungal infestation)

Examples with answers:
Q. Checklist item: activity against Venturia inaegualis (fungal infestation) tested on Venturia inaegualis, entry CC1CC1COc1nc2ccc(Br)cc2c(=O)n1CC1CC1 (centres unmarked) , value?
A. good activity

Q. Checklist item: activity against Venturia inaegualis (fungal infestation) tested on Venturia inaegualis, entry CCCn1c(OCC2CC2(F)F)nc2sc(Br)cc2c1=O (centres unmarked) , value?
A. good activity

Q. Checklist item: activity against Venturia inaegualis (fungal infestation) tested on Venturia inaegualis, entry CCCCn1c(OCC2CC2C)nc2ccc(Br)cc2c1=O (centres unmarked) , value?
A. good activity

Q. Checklist item: activity against Venturia inaegualis (fungal infestation) tested on Venturia inaegualis, entry CCCn1c(OCC2(C)CC2)nc2sc(Br)cc2c1=O , value?
A. good activity

Now look at this entry.
Q. Checklist item: activity against Venturia inaegualis (fungal infestation) tested on Venturia inaegualis, entry CCCn1c(OCC2(C)CC2)nc2sc(Cl)cc2c1=O , value?
A. good activity
